# System: CHEK1
# Stated Conditions: concentration: 1 μM, replicates: in singlicate; n = 1;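 further: KINOMEscan kinase panel screen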
Assay Endpoint: %Inh (%)
Answers are plain numbers, in %.

Would you mind giving %Inh for every compound in the list below?
1. CCn1cnc2c(N)ncnc21 [GW345098]
2. Fc1ccc(-c2ncn(CCCN3CCOCC3)c2-c2cccnc2)cc1 [SB-211743]
3. Cc1cccc(-c2nc(Nc3ccc4ncsc4c3)c3ccccc3n2)n1 [GW867588]
4. CN1c2ccc(CNc3ccc(F)cc3)cc2-c2c(cnn2C)S1(=O)=O

12
0
0
0

* * *

# Test system: TRKA
# Construct: gene NTRK1
# Stated Conditions: concentration: 1 μM, replicates: in singlicate; n = 1
Rule: %Inh below 10% gives fulfilled, anything at or above gives not fulfilled.

In the record for Cc1nnc(-c2ccc(C)c(-c3ccc(C(=O)Nc4ccc(NS(C)(=O)=O)cc4)cc3)c2)o1 [GW702865] , is %Inh less than 10%?
not fulfilled

In the record for O=c1cc(N2CCOCC2)nc2n(Cc3cccc(Cl)c3Cl)c(C3CC3)nn12 [GSK2358994] , is %Inh less than 10%?
fulfilled

In the record for NS(=O)(=O)CCc1cccc(Nc2nccc(-c3c(-c4cccc(NC(=O)c5c(F)cccc5F)c4)nn4ccccc34)n2)c1 [GSK336735] , is %Inh less than 10%?
fulfilled

In the record for CN(C1=C(c2ccccc2)C(=O)NC1=O)c1ccccc1 [SB-334860] , is %Inh less than 10%?
not fulfilled

In the record for Cl.Oc1cccc(Nc2ccnc3cc(-c4ccncc4)ccc23)c1 [GW494601] , is %Inh less than 10%?
not fulfilled

In the record for O=C1NC(=O)C(N2CCc3ccccc32)=C1c1cccc(Cl)c1 [SB-408010] , is %Inh less than 10%?
not fulfilled

In the record for O=C(c1ccc(-c2cc(-c3c[nH]nc3-c3ccccn3)ccn2)cc1)N1CCOCC1 [GW812171] , is %Inh less than 10%?
fulfilled

In the record for O=c1cc(N2CCOCC2)nc2n(Cc3cccc4ccccc34)ccn12 [GSK2333389] , is %Inh less than 10%?
fulfilled

In the record for CCCCCc1nc2c(N)ncnc2n1CCCCC [SKF-97255] , is %Inh less than 10%?
fulfilled

In the record for Fc1ccc(-c2nn3c(OCC(F)(F)F)cccc3c2-c2ccncc2)cc1 [GW514784] , is %Inh less than 10%?
not fulfilled

In the record for CC(C)(C)n1cnc2c(N)ncnc21 [SKF-97359] , is %Inh less than 10%?
not fulfilled

In the record for Cc1cccc(-c2nc(Nc3ccc4ncsc4c3)c3ccccc3n2)n1 [GW867588] , is %Inh less than 10%?
not fulfilled

In the record for Cc1cccc(-c2nc(-c3ccc(S(C)(=O)=O)cc3)sc2-c2ccncc2)c1 , is %Inh less than 10%?
fulfilled
